Measured pEC50 accompanies every entry in the list below.
- System: Plasmodium falciparum
- assayComment: NOVARTIS: Inhibition of Plasmodium falciparum W2 (drug-resistant) proliferation in erythrocyte-based infection assay
- Type: functional, organism-based
- measurementSetup: Plasmodium falciparum, W2; read-out: EC50
pEC50: −log10 of the molar value.
experimentalEndpoint: pEC50

molecule=CN(C)CCCn1c(N)c(-c2nc3ccccc3[nH]2)c2nc(C#N)c(C#N)nc21 measuredresult=6.56
molecule=Cc1ccc(-c2nc3ncccc3o2)cc1NC(=O)COc1ccc(C(C)(C)C)cc1 measuredresult=5.98
molecule="O=C(NCc1ccccc1C(F)(F)F)C1CC(O)CN1C(=O)Nc1ccccc1 (stereo not drawn)" measuredresult=6.82

* * *

- System: Plasmodium falciparum
- assayComment: NOVARTIS: Inhibition of Plasmodium falciparum 3D7 (drug-susceptible) proliferation in erythrocyte-based infection assay
- Type: functional, organism-based
pEC50: −log10 of the molar value.
The entries below are paired with their reported pEC50.
experimentalEndpoint: pEC50

molecule=Cc1cccc(N=C2NC(=O)/C(=C\c3ccc(N(C)C)cc3)S2)c1 measuredresult=5.93
molecule="CC1=C(C=CC(C)C=NNC(=O)c2ccncc2)C(C)(C)CCC1 (stereo not given)" measuredresult=5.85
molecule=CC[n+]1c(C=CN(C)C)sc2ccccc21 measuredresult=6.35
molecule=CN(C=Cc1sc2ccc3ccccc3c2[n+]1C)c1ccccc1 measuredresult=6.26
molecule=CCN1C(=Cc2sc3ccccc3[n+]2C)C=Cc2ccc(C)cc21 measuredresult=6.92
molecule=C=CCN1C=CC(=Cc2sc3ccccc3[n+]2C)c2ccccc21 measuredresult=6.36
molecule=CN(C)c1ccc(C=Cc2cccc[n+]2C)cc1 measuredresult=6.50
molecule=C[n+]1ccc(C=Cc2ccc(O)cc2)cc1 measuredresult=6.52
molecule="CCN(CC)C1SC=C(c2ccc([N+](=O)[O-])cc2)S1 (stereo not given)" measuredresult=6.26
molecule=CC[n+]1c(C=C2Sc3ccccc3N2CCO)sc2ccccc21 measuredresult=5.85
molecule=Cn1cc(/C=C/c2cc[n+](C)cc2)c2ccccc21 measuredresult=6.67
molecule=Cc1ccc2c(c1)N(C)/C(=C/c1cccc[n+]1C)S2 measuredresult=6.08
molecule=CC(C)CC[n+]1ccccc1C=Cc1ccc(N(C)C)cc1 measuredresult=7.08
molecule=CCN1/C(=C/c2[se]c3ccccc3[n+]2CC)C=Cc2cc(OC)ccc21 measuredresult=5.80
molecule=CCN(CC)c1ccc(C=Cc2cc[n+](Cc3ccc(F)cc3)cc2)cc1 measuredresult=6.38
molecule=CCN1C(=Cc2sc3ccc(OC)cc3[n+]2CC)C=Cc2ccccc21 measuredresult=7.69
molecule=CCN1/C(=C/C=C/c2sc3ccccc3[n+]2CC)Sc2ccccc21 measuredresult=6.59
molecule=CC[n+]1c(/C=C/c2ccc(N(C)C)cc2)sc2cc(NC(C)=O)ccc21 measuredresult=5.82
molecule=CCN1C=C/C(=C\c2cccc[n+]2C)c2ccccc21 measuredresult=5.99
molecule=CCn1c(C=CN(C(C)=O)c2ccccc2)[n+](CC)c2cc(Cl)ccc21 measuredresult=5.59
molecule=CCN1/C(=C/c2sc3ccccc3[n+]2CC)Sc2ccccc21 measuredresult=6.73

* * *

- assayComment: NOVARTIS: Cytotoxicity against human hepatocellular carcinoma cell line (Huh7)
- Assay type: toxicity, cell-based, Huh-7
- measurementSetup: Huh7 cells (hepatocellular carcinoma cell line)
experimentalEndpoint: CC50

compound="CCOC(=O)c1ccc(NC(=O)c2ccc(S(=O)(=O)N3CC(C)CC(C)C3)cc2)cc1 (stereo not given)" measuredresult="> 100 µM"
compound="Cc1cc(NC(c2cccc(Br)c2)c2ccc3cccnc3c2O)no1 (stereo not given)" measuredresult="> 22.8 µM"
compound=CCN1CCN(c2cc(C)c3cc(NC(=O)/C=C/c4cccc(Cl)c4)ccc3n2)CC1 measuredresult="> 13.8 µM"
compound=O=C(NCCCN1CCCC1=O)c1ccc2nc(N3CCOCC3)sc2c1 measuredresult="26.8 µM"
compound="CCC(c1nc2ccccc2c(=O)n1-c1cccc(C)c1)N(CCc1ccccc1)C(=O)Nc1c(C(C)C)cccc1C(C)C (stereo not given)" measuredresult="> 8.51 µM"
compound="CCN(CC)CCCC(C)N(Cc1cccc(OCc2ccccc2)c1)C(=O)NCc1ccccc1 (stereo not given)" measuredresult="> 10 µM"
compound=COc1cc(OC)cc(C(=O)NCc2n[nH]c(=S)n2-c2cccc(C(F)(F)F)c2)c1 measuredresult="> 100 µM"
compound="COc1ccc(OC)c(-c2ccc(O)c(CN(C)CC(O)c3ccccc3)c2)c1 (stereo not given)" measuredresult="66.3 µM"
compound=CN(C)c1ccc(C=CC(=O)NC(=O)c2ccccc2O)cc1 measuredresult="> 100 µM"
compound=CN1CCN(NC=C2C(=O)N(c3nc4ccccc4s3)N=C2c2ccccc2)CC1 measuredresult="> 100 µM"
